Assignment: determine reported Residual trypsin activity (%) for the given binders.
# Assayed Target: bovine trypsin (bovine, UniProt P00760 24-246)
# Sequence (P00760 24-246): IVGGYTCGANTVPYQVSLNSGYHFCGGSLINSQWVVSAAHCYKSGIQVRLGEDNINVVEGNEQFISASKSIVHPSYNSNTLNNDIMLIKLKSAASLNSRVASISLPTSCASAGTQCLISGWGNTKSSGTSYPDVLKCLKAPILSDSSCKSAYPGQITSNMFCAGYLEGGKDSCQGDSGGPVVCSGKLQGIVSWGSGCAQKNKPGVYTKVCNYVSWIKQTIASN
# Assay Name: trypsin (50 nM) BApNA hydrolysis, OD405; peptide at 9.76 µM
Bridge positions count the residues as written; N and C are the ends. Ends that are not written are not given here.
Express the result in % but write the number alone.

Query :: Quick one: Residual trypsin activity (%) of CGRAAKSIPPICF (disulfide 1-12 (inferred), synthetic) [BT26] ?
Result :: 0.4

Query :: Given CGRSTKSIPPICF (disulfide 1-12 (inferred), synthetic) [BT47] , state its recorded Residual trypsin activity (%).
Result :: 0

Query :: State the recorded Residual trypsin activity (%) for this entry: CGTATKSIPPICF (disulfide 1-12 (inferred), synthetic) [BT25]
Result :: 1

Query :: Fill blank: measured Residual trypsin activity (%) of the binder CGRQTKSIPPICF (disulfide 1-12 (inferred), synthetic) [BT54] is ____.
Result :: -0.1

Query :: Given CGRYTKSIPPICF (disulfide 1-12 (inferred), synthetic) [BT53] , state its recorded Residual trypsin activity (%).
Result :: 0.2
